Test system: Bacillus subtilis ATCC 6633
measured_quantity: MIC (µM)
The answer is to be given in µM; state only the numeric part.

molecule: CC[C@H](C)[C@H](NC(=O)[C@H](CC(C)C)NC(=O)[C@@H](N)Cc1ccccc1)C(=O)NCC(=O)N[C@@H](CCSC)C(=O)N[C@H](C(=O)N[C@@H](Cc1cnc[nH]1)C(=O)NCC(=O)N[C@@H](CC(C)C)C(=O)N[C@H](C(=O)N[C@H]1CSSC[C@@H](C(=O)O)NC(=O)[C@H](CCCCN)NC(=O)[C@H](CCCN=C(N)N)NC(=O)[C@H](CO)NC(=O)[C@H]([C@@H](C)CC)NC(=O)[C@H](CC(C)C)NC1=O)[C@@H](C)CC)[C@@H](C)O [FLIGMTHGLICLISRKC]
quantity_unit: µM
MIC: 26.2
--
molecule: CC[C@H](C)[C@H](NC(=O)CN)C(=O)N[C@@H](CC(C)C)C(=O)N[C@@H](CC(=O)O)C(=O)N[C@@H](C)C(=O)N[C@H](C(=O)N[C@@H](CCCCN)C(=O)N[C@@H](C)C(=O)N[C@@H](Cc1ccccc1)C(=O)N[C@@H](C)C(=O)N[C@@H](CC(N)=O)C(=O)N[C@@H](C)C(=O)N[C@@H](CC(C)C)C(=O)NCC(N)=O)[C@@H](C)CC [GILDAIKAFANALG]
quantity_unit: µM
MIC: 4
--
molecule: CC(C)C[C@H](NC(=O)[C@H](Cc1c[nH]c2ccccc12)NC(=O)[C@H](CCCCN)NC(=O)[C@H](CC(C)C)NC(=O)[C@H](CC(C)C)NC(=O)[C@H](Cc1c[nH]c2ccccc12)NC(=O)[C@H](CCCCN)NC(=O)[C@H](CC(C)C)NC(=O)[C@@H](N)CC(C)C)C(=O)N[C@@H](CCCCN)C(=O)N[C@@H](CCCCN)C(N)=O [LLKWLLKWLKK]
quantity_unit: µM
MIC: 0.885
--
molecule: C[C@H](NC(=O)[C@H](C)NC(=O)[C@H](Cc1ccccc1)NC(=O)[C@H](C)NC(=O)[C@H](C)NC(=O)[C@H](Cc1ccccc1)NC(=O)[C@H](C)NC(=O)[C@H](C)NC(=O)[C@H](Cc1ccccc1)NC(=O)[C@H](C)NC(=O)[C@H](C)NC(=O)[C@H](CCCCN)NC(=O)[C@H](CCCCN)NC(=O)[C@H](CCCCN)NC(=O)[C@H](CCCCN)NC(=O)[C@H](CCCCN)NC(=O)[C@@H](N)CCCCN)C(N)=O [KKKKKKAAFAAFAAFAA]
quantity_unit: µM
MIC: 16

Report the value of MIC obtained on Bacillus subtilis ATCC 6633 for CC(C)[C@H](NC(=O)[C@H](CS)NC(=O)[C@@H](NC(=O)[C@H](CCCN=C(N)N)NC(=O)[C@H](CCCCN)NC(=O)CNC(=O)[C@H](CC(N)=O)NC(=O)[C@@H](N)CS)C(C)C)C(=O)N[C@@H](CS)C(=O)N[C@@H](CCCN=C(N)N)C(N)=O [CNGKRVCVCR] .
13.2
